Quick reference: intrinsic clearance, rat liver microsomes of the listed items.
MEASURED ENDPOINT: intrinsic clearance, rat liver microsomes

In [3]: df
Out[3]:
                                 smiles_str   observed_result
0    Cc1nc(-c2ccc(Cl)c(Cl)c2)n(CC(C)(C)O)n1  ≤ 10.7 mL/min/kg
1             Clc1cnc(Oc2ccc3cn[nH]c3c2)nc1    27.5 mL/min/kg
2  COc1cc2nn(CCC(C)(C)O)cc2cc1NC(=O)c1ccn(C(F)F)n1  ≤ 10.7 mL/min/kg
3         CCOc1cccc(CNCCc2c[nH]c3ccccc23)c1    1330 mL/min/kg
4              COc1ccc(CCC(=O)N2CCCNCC2)cc1  ≤ 10.7 mL/min/kg
5          Cc1nn(C)c2nc(C(C)C)cc(C(=O)O)c12  ≤ 10.7 mL/min/kg
6        CCN(C(=O)CN1CCNC(=O)C1)c1ccc(F)cc1  ≤ 10.7 mL/min/kg
